Origin of the recorded values: paper PMC3928365

# System: E. coli
# experiment: Antibiotic disc susceptibility testing (BSAC method)
# Format: cell-based, Escherichia coli
# experimental_parameters: antibiotic disks (Oxoid), amount per disc per antibiotic (5-30 μg)
measurement_type: Sensitive (S)/Resistant (R), E. coli

smiles_text: CC[C@H]1OC(=O)[C@H](C)[C@@H](O[C@H]2C[C@@](C)(OC)[C@@H](O)[C@H](C)O2)[C@H](C)[C@@H](O[C@@H]2O[C@H](C)C[C@H](N(C)C)[C@H]2O)[C@](C)(O)C[C@@H](C)C(=O)[C@H](C)[C@@H](O)[C@]1(C)O
tested_target: E. coli
Sensitive (S)/Resistant (R), E. coli: R
--
smiles_text: COc1cccc(OC)c1C(=O)N[C@@H]1C(=O)N2[C@@H]1SC(C)(C)[C@@H]2C(=O)O
tested_target: E. coli
Sensitive (S)/Resistant (R), E. coli: S
--
smiles_text: CC1=C(C(=O)O)N2C(=O)[C@@H](NC(=O)[C@H](N)c3ccccc3)[C@H]2SC1
tested_target: E. coli
Sensitive (S)/Resistant (R), E. coli: S
--
smiles_text: CC1(C)S[C@@H]2[C@H](NC(=O)[C@H](N)c3ccc(O)cc3)C(=O)N2[C@H]1C(=O)O
tested_target: E. coli
Sensitive (S)/Resistant (R), E. coli: S

Lookup result for `COc1cc(Cc2cnc(N)nc2N)cc(OC)c1OC` ; measured Sensitive (S)/Resistant (R), E. coli: S

Query `CO/N=C(\C(=O)N[C@@H]1C(=O)N2C(C(=O)O)=C(COC(C)=O)CS[C@H]12)c1csc(N)n1` yields Sensitive (S)/Resistant (R), E. coli of S
